These entries and their values trace back to PubChem BioAssay AID1159580.

# testSummary: chemical genetic growth profiling, strain panel (AID 1159580);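 note: tested at 20 µM; growth read once vehicle control cultures reached saturation at 30 °C; 1 = growth at the plate median or of vehicle wells; lower values mean less growth of the strain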
# statedConditions: S. cerevisiae deletion strains, growth OD, locus YNL197C, strain WHI3, stronger effect = lower value
About 2,000 (36%) of roughly 5,500 compounds were called active. Inconclusive results (about 18%) are left out. The list shows a part of the results.
Field: normalized growth. Provide a value for each of the compounds that follow.
Give your answer as a number; write no unit.

q: What does the record list as normalized growth for OC(CN1CCC(Cc2ccc(F)cc2)CC1)c1ccc(Cl)cc1 (centres undefined) ?
a: 1.01

q: normalized growth for CC1CNCCN1S(=O)(=O)c1cccc2cnccc12 (centres undefined) ?
a: 1.01

q: Quick check: normalized growth of CC1(C)NC(=O)N(c2ccc([N+](=O)[O-])c(C(F)(F)F)c2)C1=O ?
a: 0.968

q: # query: normalized growth of entry CN1C(C(=O)Nc2ccccn2)=C(O)c2ccccc2S1(=O)=O
a: 0.97

q: Name the recorded normalized growth for O=C(O)Cc1c[nH]c2ccc(O)cc12 .
a: 0.975

q: // normalized growth lookup, key: NC(=O)C1=CN(C2OC(COP(=O)(O)OP(=O)(O)OC[C@H]3O[C@@H](n4cnc5c(N)ncnc54)C(OP(=O)(O)O)[C@H]3O)C(O)C2O)C=CC1 (some centres undefined)
a: 0.986

q: Would you kindly share the measured normalized growth for CCCN1CCC[C@@H](c2cccc(O)c2)C1 ?
a: 0.446

q: For CC(C(O)c1ccc(O)cc1)N1CCC(Cc2ccccc2)CC1 (centres undefined) , what is its reported normalized growth?
a: 1.03

q: Please look up its normalized growth: Cc1cccc(C)c1NC1=NCCCS1
a: 1.01

q: Value lookup for normalized growth; key = Clc1cccc(Cl)c1NC1=NCCN1
a: 0.999

q: Consider the compound shown here: Clc1ccc(Cn2c(CN3CCCC3)nc3ccccc32)cc1 What is its recorded normalized growth?
a: 1.04

q: Recorded normalized growth of Cc1c(CC(C)(C)C(=O)O)n(Cc2ccc(Cl)cc2)c2ccc(F)cc12 , please.
a: 0.974

q: If you can, please state the reported normalized growth value of N=C1Sc2ccccc2C2=NCCCN12 .
a: 1.02

q: So what's the measured normalized growth for this one? O=C(O)Cc1ccc(O)c(O)c1
a: 1.02

q: Which value of normalized growth has been reported for CC[N+](CC)(CC)CCOc1cccc(OCC[N+](CC)(CC)CC)c1OCC[N+](CC)(CC)CC in the records?
a: 0.987

q: Given the entry CCNC(=O)[C@H]1O[C@@H](n2cnc3c(N)ncnc32)C(O)[C@H]1O (some centres undefined) , report its measured normalized growth.
a: 1.01

q: Item COc1ccc2c(c1)c(CC(=O)O)c(C)n2Cc1ccc(F)cc1 has what recorded normalized growth?
a: 0.991

q: # get_value(readout='normalized growth', item= C[C@@H](CN1CCC(Cc2ccccc2)CC1)[C@@H](O)c1ccc(O)cc1 )
a: 0.999

q: Dear colleague, I am looking for the recorded normalized growth of the following compound: CCCN1CCC[C@@H](c2cccc(C#N)c2)C1
a: 1.04

q: Need normalized growth of CCCN1CCC[C@H](c2cccc(O)c2)C1 , thanks.
a: 1.01

q: Data request, read-out normalized growth, for NC(=O)c1cccc(N)c1
a: 1.01

q: Sample COc1nc(C)nc(Cl)c1NC1=NCCN1 — what was its normalized growth?
a: 1

q: What value of normalized growth has been recorded for this entry: COC(=O)C1=CCCN(C)C1
a: 1

q: Bench note: what normalized growth did C[N+](C)(CCCCCC[N+](C)(C)CCCN1C(=O)c2cccc3cccc(c23)C1=O)CCCN1C(=O)c2cccc3cccc(c23)C1=O show?
a: 1.01
